# Test Target: Signal transducer and activator of transcription 3 (Homo sapiens, UniProt P40763)
# Sequence (P40763 whole entry): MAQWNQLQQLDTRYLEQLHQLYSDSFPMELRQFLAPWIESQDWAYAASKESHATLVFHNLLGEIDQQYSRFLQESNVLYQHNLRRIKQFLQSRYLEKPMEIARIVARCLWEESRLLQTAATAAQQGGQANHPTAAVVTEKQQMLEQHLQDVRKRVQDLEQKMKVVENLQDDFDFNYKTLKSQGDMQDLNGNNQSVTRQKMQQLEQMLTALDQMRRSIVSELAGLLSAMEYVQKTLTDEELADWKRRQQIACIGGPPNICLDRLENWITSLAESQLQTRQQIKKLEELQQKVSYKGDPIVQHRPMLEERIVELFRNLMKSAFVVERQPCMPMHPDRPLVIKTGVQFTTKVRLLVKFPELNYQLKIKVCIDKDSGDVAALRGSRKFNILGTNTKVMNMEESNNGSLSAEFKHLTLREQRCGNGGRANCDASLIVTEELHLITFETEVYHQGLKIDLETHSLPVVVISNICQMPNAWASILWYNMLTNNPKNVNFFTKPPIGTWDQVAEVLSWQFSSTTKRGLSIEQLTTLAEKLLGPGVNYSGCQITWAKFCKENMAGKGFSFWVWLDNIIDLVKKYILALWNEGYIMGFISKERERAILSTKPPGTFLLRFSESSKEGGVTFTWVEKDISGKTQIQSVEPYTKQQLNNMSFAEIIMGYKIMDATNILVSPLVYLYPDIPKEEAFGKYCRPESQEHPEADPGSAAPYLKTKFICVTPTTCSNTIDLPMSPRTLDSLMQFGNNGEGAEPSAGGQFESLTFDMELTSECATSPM
# Assay Summary: Inhibition of STAT3 (unknown origin) expressed in human HCT116 cells after 24 hrs by dual-luciferase reporter gene assay
# Type: cell-based
Quantity: IC50 (µM)
API: value field is a number in µM; no unit string.

Entry `C=C(C)C(=O)N(Cc1ccc(Br)cc1)C(=O)/C=C/c1cc(OC)c(OC)c(OC)c1` needs its IC50 filled in; supply it.
10

---

# Test Target: Signal transducer and activator of transcription 3 (Homo sapiens, UniProt P40763)
# Assay Summary: Inhibition of STAT3 phosphorylation at Tyr705 residues in human DU145 cells after 24 hrs by Western blot analysis
# Format: cell-based
Quantity: pIC50
Entry type: numeric. Quantity: pIC50, the -log10 of concentration in molar units.

Entry `COc1cc(/C=C/C(=O)N2CCC=CC2=O)cc(OC)c1OC` needs its pIC50 filled in; supply it.
5.15
